Target: Aurora A (Homo sapiens)
Construct: gene AURKA; full length in pET21d, 6xHis tag (Aurora A-6xHis), E. coli, Ni-NTA purified
Sequence (O14965 whole entry): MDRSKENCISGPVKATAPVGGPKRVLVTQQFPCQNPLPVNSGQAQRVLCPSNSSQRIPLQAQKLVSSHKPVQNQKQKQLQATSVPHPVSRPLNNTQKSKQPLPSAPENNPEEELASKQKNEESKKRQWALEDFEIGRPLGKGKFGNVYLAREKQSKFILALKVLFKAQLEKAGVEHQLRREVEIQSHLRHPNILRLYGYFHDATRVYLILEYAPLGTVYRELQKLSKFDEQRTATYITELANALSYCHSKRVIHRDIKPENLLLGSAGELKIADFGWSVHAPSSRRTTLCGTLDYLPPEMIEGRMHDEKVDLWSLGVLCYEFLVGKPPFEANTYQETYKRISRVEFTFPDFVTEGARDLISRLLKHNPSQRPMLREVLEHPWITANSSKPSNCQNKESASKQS
Assay: in vitro kinase assay (Z'LYTE Ser/Thr […] peptide; Easylite luminescence ATP detection)
Assay type: biochemical
Conditions: read-out: Tripolin A
Quantity Measured: pIC50
// pIC50 is dimensionless: -log10 of concentration (M)

Need pIC50, item `O=C1Nc2ccccc2C1=Cc1cc(O)ccc1O`
5.82

====

Target: KDR (Homo sapiens, UniProt P35968)
Construct: selectivity panel
Sequence (P35968 20-1356): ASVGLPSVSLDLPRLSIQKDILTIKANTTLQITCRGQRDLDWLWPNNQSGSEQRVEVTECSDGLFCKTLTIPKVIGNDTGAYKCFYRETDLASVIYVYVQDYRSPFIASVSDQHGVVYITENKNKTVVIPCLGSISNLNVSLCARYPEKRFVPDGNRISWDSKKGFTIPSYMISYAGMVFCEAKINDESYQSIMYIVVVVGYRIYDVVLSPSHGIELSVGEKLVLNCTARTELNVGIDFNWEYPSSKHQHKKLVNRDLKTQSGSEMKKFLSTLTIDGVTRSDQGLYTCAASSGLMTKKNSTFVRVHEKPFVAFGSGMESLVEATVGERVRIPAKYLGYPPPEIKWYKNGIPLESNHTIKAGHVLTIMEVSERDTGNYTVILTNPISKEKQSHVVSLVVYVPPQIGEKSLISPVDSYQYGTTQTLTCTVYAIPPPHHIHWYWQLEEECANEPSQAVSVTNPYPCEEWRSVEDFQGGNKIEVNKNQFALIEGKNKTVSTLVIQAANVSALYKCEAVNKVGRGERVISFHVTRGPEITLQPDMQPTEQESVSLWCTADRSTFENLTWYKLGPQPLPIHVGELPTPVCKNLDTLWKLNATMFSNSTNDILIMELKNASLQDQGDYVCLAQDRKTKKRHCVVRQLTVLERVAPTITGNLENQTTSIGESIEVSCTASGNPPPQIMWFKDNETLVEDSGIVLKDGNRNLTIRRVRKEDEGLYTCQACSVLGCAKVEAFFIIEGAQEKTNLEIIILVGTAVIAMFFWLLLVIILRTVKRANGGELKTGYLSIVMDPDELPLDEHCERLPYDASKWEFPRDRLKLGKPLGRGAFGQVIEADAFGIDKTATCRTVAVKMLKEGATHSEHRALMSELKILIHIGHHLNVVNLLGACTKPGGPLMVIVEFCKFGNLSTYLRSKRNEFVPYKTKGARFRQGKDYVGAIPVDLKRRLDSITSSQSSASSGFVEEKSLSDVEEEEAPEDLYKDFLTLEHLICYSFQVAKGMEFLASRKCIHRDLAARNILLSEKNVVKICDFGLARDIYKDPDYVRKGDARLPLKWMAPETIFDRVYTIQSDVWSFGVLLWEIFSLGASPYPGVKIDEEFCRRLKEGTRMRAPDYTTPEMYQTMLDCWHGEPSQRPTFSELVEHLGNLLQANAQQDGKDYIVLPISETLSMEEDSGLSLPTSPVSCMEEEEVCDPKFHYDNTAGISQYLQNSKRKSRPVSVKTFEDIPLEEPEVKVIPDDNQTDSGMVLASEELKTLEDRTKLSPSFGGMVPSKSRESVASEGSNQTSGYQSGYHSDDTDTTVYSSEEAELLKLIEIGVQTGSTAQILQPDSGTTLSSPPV
Assay: Z'LYTE kinase selectivity assay
Format: biochemical
Details: read-out: Tripolin B
From the text: Z'LYTE kinase selectivity assay on KDR
Quantity Measured: pIC50
// pIC50 is dimensionless: -log10 of concentration (M)

Need pIC50, item `O=C1Nc2ccccc2C1=Cc1cnc[nH]1`
5.19

====

Molecular target: FGFR
Construct: gene FGFR1; selectivity panel
Assay: Z'LYTE kinase selectivity assay
Type: biochemical
Settings: read-out: Tripolin B
Quantity Measured: pIC50
// pIC50 is dimensionless: -log10 of concentration (M)

Need pIC50, item `O=C1Nc2ccccc2C1=Cc1cnc[nH]1`
4.42

====

Molecular target: IGF1R (Homo sapiens)
Construct: selectivity panel
Experiment: Z'LYTE kinase selectivity assay
Format: biochemical
Conditions: read-out: Tripolin A
Quantity Measured: IC50 (µM)
Field: numeric (µM). Do not append units.

Need IC50, item `O=C1Nc2ccccc2C1=Cc1cc(O)ccc1O`
14.9

====

Biological target: Aurora B (Homo sapiens, UniProt Q96GD4)
Construct: gene AURKB; selectivity panel
Sequence (Q96GD4 whole entry): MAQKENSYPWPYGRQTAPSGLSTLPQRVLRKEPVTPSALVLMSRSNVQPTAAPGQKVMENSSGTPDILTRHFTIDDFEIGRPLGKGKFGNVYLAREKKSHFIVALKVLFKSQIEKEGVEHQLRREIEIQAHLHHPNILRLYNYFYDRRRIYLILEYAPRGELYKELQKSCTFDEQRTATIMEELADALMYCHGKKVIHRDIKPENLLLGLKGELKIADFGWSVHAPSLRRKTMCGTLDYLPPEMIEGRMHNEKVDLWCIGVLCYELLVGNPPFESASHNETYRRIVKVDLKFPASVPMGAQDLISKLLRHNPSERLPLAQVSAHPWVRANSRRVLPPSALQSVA
Assay: Z'LYTE kinase selectivity assay
Format: biochemical
Conditions: read-out: Tripolin B
Description: Z'LYTE kinase selectivity assay on Aurora B
Quantity Measured: IC50
Respond with the figure and its unit, in that order.

Find the measured IC50: item `O=C1Nc2ccccc2C1=Cc1cnc[nH]1` , target or system Aurora B (Homo sapiens, UniProt Q96GD4).
6 µM

====

Target: EGFR (Homo sapiens, UniProt P00533)
Construct: selectivity panel
Sequence (P00533 25-1210): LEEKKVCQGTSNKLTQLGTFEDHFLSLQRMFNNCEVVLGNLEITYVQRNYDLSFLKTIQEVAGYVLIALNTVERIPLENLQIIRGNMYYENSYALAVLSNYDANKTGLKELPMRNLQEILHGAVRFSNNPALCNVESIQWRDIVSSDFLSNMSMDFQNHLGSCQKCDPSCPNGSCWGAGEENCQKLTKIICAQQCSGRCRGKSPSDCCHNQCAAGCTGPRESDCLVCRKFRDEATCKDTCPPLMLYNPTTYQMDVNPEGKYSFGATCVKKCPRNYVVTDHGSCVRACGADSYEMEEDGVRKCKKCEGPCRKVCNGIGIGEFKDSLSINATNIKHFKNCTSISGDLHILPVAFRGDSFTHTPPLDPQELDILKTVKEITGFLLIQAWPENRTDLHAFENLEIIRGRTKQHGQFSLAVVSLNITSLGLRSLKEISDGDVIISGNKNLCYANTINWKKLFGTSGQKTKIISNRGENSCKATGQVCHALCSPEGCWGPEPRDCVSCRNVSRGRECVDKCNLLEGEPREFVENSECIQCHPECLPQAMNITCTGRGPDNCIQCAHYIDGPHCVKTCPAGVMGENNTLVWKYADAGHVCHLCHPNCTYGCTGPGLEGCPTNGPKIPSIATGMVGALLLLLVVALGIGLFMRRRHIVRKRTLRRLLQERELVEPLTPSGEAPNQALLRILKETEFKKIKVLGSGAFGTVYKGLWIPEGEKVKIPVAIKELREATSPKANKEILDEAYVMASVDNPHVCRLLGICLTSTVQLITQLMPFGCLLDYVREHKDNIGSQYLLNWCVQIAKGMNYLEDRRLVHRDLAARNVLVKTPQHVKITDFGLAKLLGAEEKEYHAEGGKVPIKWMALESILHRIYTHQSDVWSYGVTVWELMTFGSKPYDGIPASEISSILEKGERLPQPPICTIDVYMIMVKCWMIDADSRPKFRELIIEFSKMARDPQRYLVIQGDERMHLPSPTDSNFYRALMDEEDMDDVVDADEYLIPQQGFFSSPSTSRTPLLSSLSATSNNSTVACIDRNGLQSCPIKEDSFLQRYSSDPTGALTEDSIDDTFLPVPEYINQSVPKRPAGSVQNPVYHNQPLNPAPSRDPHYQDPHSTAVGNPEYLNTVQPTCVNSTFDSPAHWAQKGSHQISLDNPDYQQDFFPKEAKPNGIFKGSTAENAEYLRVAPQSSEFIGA
Test: Z'LYTE kinase selectivity assay
Format: biochemical
Conditions: read-out: Tripolin A
Quantity Measured: pIC50
// pIC50 is dimensionless: -log10 of concentration (M)

Need pIC50, item `O=C1Nc2ccccc2C1=Cc1cc(O)ccc1O`
4.96

====

Molecular target: KDR (Homo sapiens, UniProt P35968)
Construct: selectivity panel
Test: Z'LYTE kinase selectivity assay
Type: biochemical
Details: read-out: Tripolin A
Quantity Measured: pIC50
// pIC50 is dimensionless: -log10 of concentration (M)

Need pIC50, item O=C1Nc2ccccc2C1=Cc1cc(O)ccc1O [Tripolin A]
4.75

====

Biological target: IGF1R (Homo sapiens, UniProt P08069)
Construct: selectivity panel
Sequence (P08069 31-736): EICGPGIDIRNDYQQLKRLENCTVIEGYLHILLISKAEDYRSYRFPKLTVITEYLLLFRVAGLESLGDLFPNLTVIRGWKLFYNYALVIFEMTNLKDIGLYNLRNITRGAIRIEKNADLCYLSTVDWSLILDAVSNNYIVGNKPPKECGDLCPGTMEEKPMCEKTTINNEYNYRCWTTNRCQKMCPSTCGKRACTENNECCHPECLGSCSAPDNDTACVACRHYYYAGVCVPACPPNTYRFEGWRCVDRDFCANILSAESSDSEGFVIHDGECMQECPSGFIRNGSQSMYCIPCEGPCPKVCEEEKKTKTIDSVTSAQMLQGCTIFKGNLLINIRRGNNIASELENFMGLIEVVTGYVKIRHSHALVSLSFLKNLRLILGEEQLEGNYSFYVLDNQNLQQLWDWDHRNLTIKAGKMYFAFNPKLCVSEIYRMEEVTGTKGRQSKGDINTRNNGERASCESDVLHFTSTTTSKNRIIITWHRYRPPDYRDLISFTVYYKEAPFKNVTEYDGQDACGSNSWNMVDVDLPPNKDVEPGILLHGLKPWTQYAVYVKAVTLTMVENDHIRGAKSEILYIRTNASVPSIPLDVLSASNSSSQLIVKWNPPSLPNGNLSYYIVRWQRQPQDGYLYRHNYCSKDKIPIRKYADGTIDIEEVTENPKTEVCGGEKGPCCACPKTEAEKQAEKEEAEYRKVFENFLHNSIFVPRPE
Sequence (P08069 741-1367): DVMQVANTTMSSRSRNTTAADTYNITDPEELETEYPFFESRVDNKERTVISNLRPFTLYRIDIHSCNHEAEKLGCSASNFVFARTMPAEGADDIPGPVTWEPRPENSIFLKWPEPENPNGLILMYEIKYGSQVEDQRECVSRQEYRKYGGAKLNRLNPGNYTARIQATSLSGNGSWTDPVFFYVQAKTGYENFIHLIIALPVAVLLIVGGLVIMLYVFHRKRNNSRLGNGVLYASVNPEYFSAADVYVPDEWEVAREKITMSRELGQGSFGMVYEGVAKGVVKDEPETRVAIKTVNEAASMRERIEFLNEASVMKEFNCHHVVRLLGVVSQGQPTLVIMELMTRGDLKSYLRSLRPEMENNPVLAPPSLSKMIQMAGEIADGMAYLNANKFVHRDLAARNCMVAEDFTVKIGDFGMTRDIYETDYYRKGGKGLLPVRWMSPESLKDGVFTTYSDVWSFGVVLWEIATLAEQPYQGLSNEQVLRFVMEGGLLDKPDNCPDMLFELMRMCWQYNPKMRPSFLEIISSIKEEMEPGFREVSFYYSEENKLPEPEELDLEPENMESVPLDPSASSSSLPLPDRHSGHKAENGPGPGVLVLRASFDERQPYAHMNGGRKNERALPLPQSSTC
Experiment: Z'LYTE kinase selectivity assay
Format: biochemical
Conditions: read-out: Tripolin B
Quantity Measured: pIC50
// pIC50 is dimensionless: -log10 of concentration (M)

Need pIC50, item `O=C1Nc2ccccc2C1=Cc1cnc[nH]1`
4.88

====

Biological target: Aurora B (Homo sapiens)
Construct: gene AURKB; selectivity panel
Assay: Z'LYTE kinase selectivity assay
Format: biochemical
Conditions: read-out: Tripolin A
Quantity Measured: IC50 (µM)
Field: numeric (µM). Do not append units.

Find the measured IC50: item O=C1Nc2ccccc2C1=Cc1cc(O)ccc1O [Tripolin A] , target or system Aurora B (Homo sapiens).
7
